Measured protein stability index, listed per entry.
B1: TMEM106C (parent)
chain: TVPEILVHNIVIFMRTSVKISYIG

Variants of: B1
protocol_notes: protein stability index of a GFP-peptide fusion (GPS, HEK-293T) (PSI 1-6); higher = more stable;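 also: lentivirally expressed fusions sorted by FACS into six bins by GFP to DsRed ratio, PSI derived from sequencing read proportions per bin multiplied by bin number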
measurement_conditions: c terminus: a fixed tail appended
value_kind: protein stability index

{"columns": ["mutation_annotation", "measured_number"],
 "data": [
  ["L6M", 2.78],
  ["H8D", 3.5],
  ["S17T", 3.17],
  ["V11G", 3.12],
  ["M14S", 4.03],
  ["K19F", 3.24],
  ["P3G", 3.81],
  ["G24A", 2.22],
  ["V2N", 2.01],
  ["V2K", 2.81],
  ["T16F", 3.06]
]}
